The measured values listed here are drawn from PubChem BioAssay (NCI).

- Tested on: HCT-15 colon
- TEST_SUMMARY: NCI tumour cell line growth inhibition, 48 h
READOUT_KIND: TGI

## Task Give the measured TGI of CCOC1CC(=O)c2c(Br)sc(Br)c21 (stereo not given) .
## Result 41.9 µM

## Task For ClCCn1c(CCl)nc2ccc(Cl)cc21 then?
## Result 2.23 µM

## Task Now consider Nc1c2ccccc2nc2c1ccc1ncccc12 and answer again.
## Result > 100 µM

## Task Here is the next compound: Nn1c(CCCCCCCCc2nnc(COc3c(O)ccc4ccccc34)n2N)nnc1COc1c(O)ccc2ccccc12
## Result > 100 µM

## Task For CC1=NOC(=O)/C1=C/c1ccccc1O then?
## Result > 100 µM
